- System: MS2 coat protein
- PROTOCOL SUMMARY: apparent KD of MS2 coat protein; designed switch direction (-1 OFF switch, 1 ON switch): 1; higher = weaker reporter binding
- PARTICULARS: input ligand: FMN 200 uM
The sequences listed here are annotated with their apparent KD of MS2 coat protein.
Lab book: enter the figure in nM, no units written.

INSERT INTO assay_data (primary_sequence, study_system, metric_name, test_value) VALUES
  ('GUUACAUGAGGAUCACCCAUGUAUGUGUGGGAGUAAGUGUCUUAGGAUAUCUAUGAUUUAGUUUAAGAGAAGGAAGAUUGUUGU [JMF''s solution 79] (Eterna round: R96, puzzle: Same State NG 3)', 'MS2 coat protein', 'apparent KD of MS2 coat protein', 117),
  ('AAACGAAACACGGCCACAUGAGGAUCACCCAUGUCGAGUUCACAGGAUAUACCUACGUCCUCGUGGUAGAAGGGUGAGGCUGUG [Rienat] (Eterna round: R96, puzzle: Same State NG 3)', 'MS2 coat protein', 'apparent KD of MS2 coat protein', 750),
  ('AGAUCAUGACGAGGAUAUCCGACAUGAGGAUCACCCAUGUAUGUCGGAGGACGGAAACGUCCAAAGGAGAAGGCGUCGUGGUCA [Mat - Same State NG 2 - JL mod - D37] (Eterna round: R96, puzzle: Same State NG 2)', 'MS2 coat protein', 'apparent KD of MS2 coat protein', 17.7),
  ('UGGCUCAGACGAGGAUAUACGUGGUCACAUGAGGAUCACCCAUGUCUCGAGCUUCGGCUCGAGGCGUAGAAGGUGUCUGAGCCU [SSNG2/6-C3] (Eterna round: R96, puzzle: Same State NG 2)', 'MS2 coat protein', 'apparent KD of MS2 coat protein', 237),
  ('GCUACCAUUGAUGCCUACAUGAGGAUCACCCAUGUAUGUAGGCAGGAUAUCGAUUGCUUUGCGAUCGAGAAGGGCUUAGGUAGC [JL SSNG3 1.31] (Eterna round: R96, puzzle: Same State NG 3)', 'MS2 coat protein', 'apparent KD of MS2 coat protein', 52.4);

Asked: # get_value(readout='apparent KD of MS2 coat protein', item= GCCGCGUUUCGCGCCUACAUGAGGAUCACCCAUGUUUGUGGGCAGGAUAUCGUCCGCUCUGCGGGCGAGAAGGGCUGUUGUGGG [salish99_SSNG3_R04_024] (Eterna round: R96, puzzle: Same State NG 3) )
Given back: 231

Asked: Quick check: apparent KD of MS2 coat protein of UGGUACAUGGGAGGAUAUCAUGUAGACAUGAGGAUCACCCAUGUAGCCAUGGAGACAUGGGAGAAUGAGAAGGCCCAUGUACCU [JL SSNG1 3.54] (Eterna round: R96, puzzle: Same State NG 2) ?
Given back: 298

Asked: Need apparent KD of MS2 coat protein, item AUAGUUGCCGAAGGAUAUGAUGAGGAUCACCCAUCAGAAGGUUGGCUAUUGGGUGGACAUGAGGAUCACCCAUGUCCUUUGGUU (Eterna round: R96, puzzle: Same State NG 1)
Given back: 58.2

Asked: apparent KD of MS2 coat protein lookup needed for UGGUACAUGGGAGGAUAUGGAGUGAUGACAUGAGGAUCACCCAUGUUAAAUAUGCCGAGAGGCAACUAGAAGGCCCAUGUACCU [JL SSNG1 3.98] (Eterna round: R96, puzzle: Same State NG 2) , thanks.
Given back: 22.3

Asked: Look up apparent KD of MS2 coat protein for this sequence: ACAUGAGACUCAGGAUAUGUUGUACCUACAUGUGACAUGAGGAUCACCCAUGUGGUAAGUAUGAUACAGAAGGGAGAGAUAUGU [Equivalance 65 - Jieux - Same State NG 2] (Eterna round: R96, puzzle: Same State NG 2)
Given back: 20.5

Asked: // apparent KD of MS2 coat protein lookup, key: UGGUACAUGGGAGGAUAUGGAGUGAUGACAUGAGGAUCACCCAUGUUAUAAAUGCCGAGAGGCAACUAGAAGGCCCAUGUACCU [JL SSNG1 3.95] (Eterna round: R96, puzzle: Same State NG 2)
Given back: 23.2
